Listed below: RLU values for each entry.
# Target system: human TAS2R1 (Homo sapiens, UniProt Q9NYW7)
# Construct: expressed in transfected cells; host or cells: HEK293T-Gα16gust44
# Sequence (Q9NYW7 1-299): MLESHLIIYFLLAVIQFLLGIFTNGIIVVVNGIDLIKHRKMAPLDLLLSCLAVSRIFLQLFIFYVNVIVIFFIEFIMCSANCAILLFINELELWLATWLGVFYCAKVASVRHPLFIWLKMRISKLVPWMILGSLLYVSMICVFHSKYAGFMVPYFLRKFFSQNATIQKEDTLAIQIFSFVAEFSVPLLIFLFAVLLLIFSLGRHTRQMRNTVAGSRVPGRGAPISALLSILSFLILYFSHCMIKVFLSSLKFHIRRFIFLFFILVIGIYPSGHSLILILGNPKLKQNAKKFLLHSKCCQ
# Run description: Calcium imaging assay (FLIPR), HEK293T-Gα16gust44 cells transfected with human TAS2R1
# Assay type: cell-based
# Measurement context: Time 122.796 s
Field: numeric (RLU). Do not append units.

- Structure smiles string: "C[C@H](CCC(=O)O)[C@H]1CC[C@H]2[C@@H]3[C@H](O)C[C@@H]4C[C@H](O)CC[C@]4(C)[C@H]3C[C@H](O)[C@]12C"
  Output unit: "RLU"
  RLU: 479.051

In: Consider the compound "C[C@H](CCC(=O)O)[C@H]1CC[C@H]2[C@@H]3CC[C@@H]4C[C@H](O)CC[C@]4(C)[C@H]3CC[C@]12C" and give its measured RLU.
Out: 861.523

In: Consider the compound "C[C@H](CCC(=O)O)[C@H]1CC[C@H]2[C@@H]3[C@@H](O)C[C@@H]4C[C@H](O)CC[C@]4(C)[C@H]3CC[C@]12C" and give its measured RLU.
Out: 311.834

In: Consider the compound "C[C@H](CCC(=O)O)[C@H]1CC[C@H]2[C@@H]3[C@H](O)C[C@@H]4C[C@H](O)CC[C@]4(C)[C@H]3CC[C@]12C" and give its measured RLU.
Out: 589.185

###

Listed below: RLU values for each entry.
# Target system: human TAS2R14 (Homo sapiens, UniProt Q9NYV8)
# Construct: expressed in transfected cells; host or cells: HEK293T-Gα16gust44
# Sequence (Q9NYV8 whole entry): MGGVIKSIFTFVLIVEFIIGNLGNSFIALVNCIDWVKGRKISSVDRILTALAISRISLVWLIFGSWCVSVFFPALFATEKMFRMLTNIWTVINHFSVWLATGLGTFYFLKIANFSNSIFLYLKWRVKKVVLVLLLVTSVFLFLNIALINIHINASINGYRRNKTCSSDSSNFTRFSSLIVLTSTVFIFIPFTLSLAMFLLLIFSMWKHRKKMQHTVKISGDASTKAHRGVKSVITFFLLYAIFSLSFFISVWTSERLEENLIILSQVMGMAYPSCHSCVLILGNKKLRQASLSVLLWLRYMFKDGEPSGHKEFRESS
# Run description: Calcium imaging assay (FLIPR), HEK293T-Gα16gust44 cells transfected with human TAS2R14
# Assay type: cell-based
# Measurement context: TAS2R14 trace; Time (s) 60.797 (Chenodeoxycholic Acid 60.781)
Field: numeric (RLU). Do not append units.

In: Request - read-out RLU | tested on human TAS2R14 (Homo sapiens, UniProt Q9NYV8) | compound C[C@H](CCC(=O)O)[C@H]1CC[C@H]2[C@@H]3[C@H](O)C[C@@H]4C[C@H](O)CC[C@]4(C)[C@H]3CC[C@]12C [Chenodeoxycholic Acid, chenodeoxycholic acid]
Out: 547.999

In: Request - read-out RLU | tested on human TAS2R14 (Homo sapiens, UniProt Q9NYV8) | compound C[C@H](CCC(=O)O)[C@H]1CC[C@H]2[C@@H]3[C@H](O)C[C@@H]4C[C@H](O)CC[C@]4(C)[C@H]3C[C@H](O)[C@]12C [Cholic Acid, cholic acid]
Out: 689.232

In: Request - read-out RLU | tested on human TAS2R14 (Homo sapiens, UniProt Q9NYV8) | compound C[C@H](CCC(=O)NCCS(=O)(=O)O)[C@H]1CC[C@H]2[C@@H]3[C@H](O)C[C@@H]4C[C@H](O)CC[C@]4(C)[C@H]3C[C@H](O)[C@]12C [Taurocholic Acid, taurocholic acid]
Out: 529.36

In: Request - read-out RLU | tested on human TAS2R14 (Homo sapiens, UniProt Q9NYV8) | compound C[C@H](CCC(=O)NCCS(=O)(=O)O)[C@H]1CC[C@H]2[C@@H]3CC[C@@H]4C[C@H](O)CC[C@]4(C)[C@H]3CC[C@]12C [Taurolithocholic Acid, taurolithocholic acid]
Out: 197.723

In: Request - read-out RLU | tested on human TAS2R14 (Homo sapiens, UniProt Q9NYV8) | compound C[C@H](CCC(=O)NCC(=O)O)[C@H]1CC[C@H]2[C@@H]3[C@H](O)C[C@@H]4C[C@H](O)CC[C@]4(C)[C@H]3C[C@H](O)[C@]12C [Glycocholic Acid, glycocholic acid]
Out: 513.015
